Recorded Ratio values for a group of compounds are listed next.
- SYSTEM: Caspase-1 (Mus musculus) (UniProt P29452)
- Sequence (whole entry): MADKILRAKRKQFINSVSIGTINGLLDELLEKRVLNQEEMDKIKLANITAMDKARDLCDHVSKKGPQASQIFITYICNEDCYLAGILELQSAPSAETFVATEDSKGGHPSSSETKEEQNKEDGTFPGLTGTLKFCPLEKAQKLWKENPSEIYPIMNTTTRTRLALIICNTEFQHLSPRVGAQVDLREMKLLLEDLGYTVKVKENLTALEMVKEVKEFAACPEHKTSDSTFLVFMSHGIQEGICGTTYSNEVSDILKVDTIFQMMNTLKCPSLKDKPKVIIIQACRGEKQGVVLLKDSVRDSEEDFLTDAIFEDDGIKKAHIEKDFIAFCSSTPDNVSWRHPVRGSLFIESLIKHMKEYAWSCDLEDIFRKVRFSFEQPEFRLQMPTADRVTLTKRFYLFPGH
- METHOD: Inhibition of mouse recombinant ICE assessed as ratio of irreversible rate constant K3 to dissociation constant of the reversible binding step Ki pre-incubated for 60 mins with Acetyl-Tyr-Val-Ala-Asp-amino-4-methylcoumarin substrate followed by enzyme addition by fluorescence based assay
Your answer should be a plain number; it is taken to be in M⁻¹ s⁻¹.

Reference set (2 entries):
- MOL SMILES: "CC(C)[C@H](NC(=O)C(=O)NC(c1ccccc1)c1ccccc1)C(=O)N[C@@H](CC(=O)O)C(=O)COc1c(F)c(F)cc(F)c1F"
  Ratio, M⁻¹ s⁻¹: 201000
- MOL SMILES: "CC(C)[C@H](NC(=O)C(=O)Nc1ccccc1Cl)C(=O)N[C@@H](CC(=O)O)C(=O)COc1c(F)c(F)cc(F)c1F"
  Ratio, M⁻¹ s⁻¹: "1.54e+06"

Task item: # value lookup — system Caspase-1 (Mus musculus) (UniProt P29452), readout Ratio, item CC(C)[C@H](NC(=O)C(=O)Nc1ccccc1Cc1ccccc1)C(=O)N[C@@H](CC(=O)O)C(=O)COc1c(F)c(F)cc(F)c1F
Reply: 344000

* * *

- SYSTEM: Caspase-6 (Homo sapiens)
- METHOD: Inhibition of recombinant MCH2 (unknown origin) assessed as ratio of irreversible rate constant K3 to dissociation constant of the reversible binding step Ki pre-incubated for 60 mins with Acetyl-Tyr-Val-Ala-Asp-amino-4-methylcoumarin substrate followed by enzyme addition by fluorescence based assay
MEASURE: Ratio

- MOL SMILES: "CC(C)[C@H](NC(=O)C(=O)Nc1ccccc1Cc1ccccc1)C(=O)N[C@@H](CC(=O)O)C(=O)COc1c(F)c(F)cc(F)c1F"
  READOUT VALUE: "25300 M⁻¹ s⁻¹"

Task item: Suppose we examine the compound CC(C)[C@H](NC(=O)C(=O)Nc1c(F)cccc1F)C(=O)N[C@@H](CC(=O)O)C(=O)COc1c(F)c(F)cc(F)c1F ; what Ratio value has been reported?
Reply: 1.08e+06 M⁻¹ s⁻¹

Task item: Request: CC(C)[C@H](NC(=O)C(=O)Nc1cccc2ccccc12)C(=O)N[C@@H](CC(=O)O)C(=O)COc1ccc(O)cc1
Reply: 69100 M⁻¹ s⁻¹

Task item: Request: C[C@H](NC(=O)C(=O)Nc1ccccc1C(C)(C)C)C(=O)N[C@@H](CC(=O)O)C(=O)COc1ccccc1F
Reply: 54900 M⁻¹ s⁻¹

Task item: Request: CC(C)[C@H](NC(=O)C(=O)Nc1ccccc1Cl)C(=O)N[C@@H](CC(=O)O)C(=O)COc1c(F)c(F)cc(F)c1F
Reply: 161000 M⁻¹ s⁻¹

Task item: Request: CC(C)[C@H](NC(=O)C(=O)NCCc1ccccc1)C(=O)N[C@@H](CC(=O)O)C(=O)COc1c(F)c(F)cc(F)c1F
Reply: 12600 M⁻¹ s⁻¹

Task item: Request: C[C@H](NC(=O)C(=O)Nc1ccccc1F)C(=O)N[C@@H](CC(=O)O)C(=O)COC(=O)c1c(Cl)cccc1Cl
Reply: 129000 M⁻¹ s⁻¹

Task item: Request: C[C@H](NC(=O)C(=O)NCCc1ccccc1)C(=O)N[C@@H](CC(=O)O)C(=O)COP(=O)(c1ccccc1)c1ccccc1
Reply: 131000 M⁻¹ s⁻¹

Task item: Request: C[C@H](NC(=O)C(=O)Nc1cc(C(C)(C)C)ccc1C(C)(C)C)C(=O)N[C@@H](CC(=O)O)C(=O)COP(=O)(c1ccccc1)c1ccccc1
Reply: 308000 M⁻¹ s⁻¹

Task item: Request: C[C@H](NC(=O)C(=O)Nc1ccc(F)cc1)C(=O)N[C@@H](CC(=O)O)C(=O)COC(=O)c1c(Cl)cccc1Cl
Reply: 18600 M⁻¹ s⁻¹

Task item: Request: C[C@H](NC(=O)C(=O)NCc1ccccc1)C(=O)N[C@@H](CC(=O)O)C(=O)COc1c(F)c(F)cc(F)c1F
Reply: 42800 M⁻¹ s⁻¹

This collection of values is drawn from ChEMBL document CHEMBL3880422.
